Origin of values: ChEMBL document CHEMBL1131093

Biological target: ATP-citrate synthase (Rattus norvegicus)
Sequence (P16638 whole entry): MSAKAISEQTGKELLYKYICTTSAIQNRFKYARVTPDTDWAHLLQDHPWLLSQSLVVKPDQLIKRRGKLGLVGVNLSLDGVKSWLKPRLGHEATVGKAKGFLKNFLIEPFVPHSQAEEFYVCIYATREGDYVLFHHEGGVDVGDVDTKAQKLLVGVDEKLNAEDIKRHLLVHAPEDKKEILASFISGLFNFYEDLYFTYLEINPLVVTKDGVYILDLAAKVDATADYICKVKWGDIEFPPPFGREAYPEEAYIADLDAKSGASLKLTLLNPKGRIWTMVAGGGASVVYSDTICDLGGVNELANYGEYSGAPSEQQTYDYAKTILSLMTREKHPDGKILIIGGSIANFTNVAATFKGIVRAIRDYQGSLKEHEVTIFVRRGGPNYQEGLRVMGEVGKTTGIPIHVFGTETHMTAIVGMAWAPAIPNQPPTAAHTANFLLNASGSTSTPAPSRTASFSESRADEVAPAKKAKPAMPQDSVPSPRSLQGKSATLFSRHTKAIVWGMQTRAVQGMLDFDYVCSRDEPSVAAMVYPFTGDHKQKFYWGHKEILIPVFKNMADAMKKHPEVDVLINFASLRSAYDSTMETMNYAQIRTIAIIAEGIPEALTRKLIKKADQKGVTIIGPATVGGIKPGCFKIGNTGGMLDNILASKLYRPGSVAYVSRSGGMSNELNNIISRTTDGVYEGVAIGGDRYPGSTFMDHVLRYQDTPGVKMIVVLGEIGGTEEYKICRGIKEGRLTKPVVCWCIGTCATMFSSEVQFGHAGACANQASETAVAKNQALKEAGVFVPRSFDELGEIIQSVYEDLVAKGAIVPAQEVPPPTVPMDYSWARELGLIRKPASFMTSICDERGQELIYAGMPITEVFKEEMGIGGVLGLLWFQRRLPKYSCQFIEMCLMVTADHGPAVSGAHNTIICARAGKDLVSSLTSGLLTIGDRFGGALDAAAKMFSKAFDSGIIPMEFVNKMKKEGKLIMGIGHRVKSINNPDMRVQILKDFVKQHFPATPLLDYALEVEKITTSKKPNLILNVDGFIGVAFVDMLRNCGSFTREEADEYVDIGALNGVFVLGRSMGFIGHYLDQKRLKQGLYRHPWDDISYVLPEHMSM
Test: Inhibitory activity was tested against ATP-Citrate Lyase (ACL) enzyme in rat
attribute.measured: Ki (µM)

1 = N[C@H](C(=O)O)[C@@](O)(CC(=O)O)C(=O)O
2 = O=C(O)C[C@@](O)(CCCCCCCCc1ccc(Cl)cc1Cl)C(=O)O
IN: Which value of Ki is greater, the one for 1 or the one for 2 ? Your answer should be the label attached to the chosen record.
OUT: 1
(1: 11 µM, 2: 2.9 µM)

###

Molecular target: ATP-citrate synthase (Homo sapiens, UniProt P53396)
Assay: Inhibitory activity against human recombinant ATP-Citrate Lyase (ACL) enzyme
attribute.measured: Ki (nM)

Study these solved cases before continuing.
[[record]]
molecule = "O=C(O)C[C@@](O)(C[C@@H](O)CCCCCCc1ccc(Cl)cc1Cl)C(=O)O"
numeric_readout = 2000

[[record]]
molecule = "O=C(O)C[C@@](O)(C[C@H](O)CCCCCCc1ccc(Cl)cc1Cl)C(=O)O (stereo in doubt; (-)-45)"
numeric_readout = 770

[[record]]
molecule = "Cc1cc2cc(Cl)ccc2n1CCCCC[C@@H](O)C[C@](O)(CC(=O)O)C(=O)O"
numeric_readout = 13000

[[record]]
molecule = "Cc1cn(-c2cc(Cl)ccc2CCCCCC[C@@H](O)C[C@](O)(CC(=O)O)C(=O)O)cc1C (stereo in doubt; 58)"
numeric_readout = 300


I = O=C(O)C[C@@](O)(C[C@H](O)CCCCCCc1ccc(Cl)cc1-c1ccccc1)C(=O)O
II = O=C(O)C[C@@](O)(C[C@H](O)CCCCCCc1ccc(Cl)cc1-c1ccc(F)cc1)C(=O)O
IN: Could you tell me which of these two has the smaller Ki figure? First: I Second: II Your answer should be the label attached to the chosen record.
OUT: I

###

Test system: Rattus norvegicus
Experiment: % Reduction of plasma triglyceride in the rat was measured at dose 75 mg/kg/d
Type: functional
attribute.measured: Reduction (%)
Output spec: scalar in %, unitless text.

Study these solved cases before continuing.
[[record]]
compound = "O=C(O)C[C@@]1(O)C[C@@H](CCCCCCc2ccc(Cl)cc2Cl)OC1=O"
experimental_target = "Rattus norvegicus"
attribute_measured = "Reduction"
readout_unit = "%"
numeric_readout = 56

[[record]]
compound = "O=C(O)C[C@@]1(O)C[C@@H](CCCCCCc2ccc(Cl)cc2COc2ccccc2)OC1=O"
experimental_target = "Rattus norvegicus"
attribute_measured = "Reduction"
readout_unit = "%"
numeric_readout = 34

[[record]]
compound = "Cc1cn(-c2cc(Cl)ccc2CCCCCC[C@@H]2C[C@](O)(CC(=O)O)C(=O)O2)cc1C"
experimental_target = "Rattus norvegicus"
attribute_measured = "Reduction"
readout_unit = "%"
numeric_readout = 20

[[record]]
compound = "O=C(O)C[C@@]1(O)C[C@@H](CCCCCn2c3ccccc3c3cc(Cl)ccc32)OC1=O"
experimental_target = "Rattus norvegicus"
attribute_measured = "Reduction"
readout_unit = "%"
numeric_readout = 33


IN: Suppose we examine the compound O=C(O)C[C@@]1(O)C[C@@H](CCCCCC2c3ccccc3-c3cc(Cl)ccc32)OC1=O (stereo not given in full) ; what Reduction value has been reported?
OUT: 16

###

Molecular target: ATP-citrate synthase (Homo sapiens, UniProt P53396)
Sequence (P53396 whole entry): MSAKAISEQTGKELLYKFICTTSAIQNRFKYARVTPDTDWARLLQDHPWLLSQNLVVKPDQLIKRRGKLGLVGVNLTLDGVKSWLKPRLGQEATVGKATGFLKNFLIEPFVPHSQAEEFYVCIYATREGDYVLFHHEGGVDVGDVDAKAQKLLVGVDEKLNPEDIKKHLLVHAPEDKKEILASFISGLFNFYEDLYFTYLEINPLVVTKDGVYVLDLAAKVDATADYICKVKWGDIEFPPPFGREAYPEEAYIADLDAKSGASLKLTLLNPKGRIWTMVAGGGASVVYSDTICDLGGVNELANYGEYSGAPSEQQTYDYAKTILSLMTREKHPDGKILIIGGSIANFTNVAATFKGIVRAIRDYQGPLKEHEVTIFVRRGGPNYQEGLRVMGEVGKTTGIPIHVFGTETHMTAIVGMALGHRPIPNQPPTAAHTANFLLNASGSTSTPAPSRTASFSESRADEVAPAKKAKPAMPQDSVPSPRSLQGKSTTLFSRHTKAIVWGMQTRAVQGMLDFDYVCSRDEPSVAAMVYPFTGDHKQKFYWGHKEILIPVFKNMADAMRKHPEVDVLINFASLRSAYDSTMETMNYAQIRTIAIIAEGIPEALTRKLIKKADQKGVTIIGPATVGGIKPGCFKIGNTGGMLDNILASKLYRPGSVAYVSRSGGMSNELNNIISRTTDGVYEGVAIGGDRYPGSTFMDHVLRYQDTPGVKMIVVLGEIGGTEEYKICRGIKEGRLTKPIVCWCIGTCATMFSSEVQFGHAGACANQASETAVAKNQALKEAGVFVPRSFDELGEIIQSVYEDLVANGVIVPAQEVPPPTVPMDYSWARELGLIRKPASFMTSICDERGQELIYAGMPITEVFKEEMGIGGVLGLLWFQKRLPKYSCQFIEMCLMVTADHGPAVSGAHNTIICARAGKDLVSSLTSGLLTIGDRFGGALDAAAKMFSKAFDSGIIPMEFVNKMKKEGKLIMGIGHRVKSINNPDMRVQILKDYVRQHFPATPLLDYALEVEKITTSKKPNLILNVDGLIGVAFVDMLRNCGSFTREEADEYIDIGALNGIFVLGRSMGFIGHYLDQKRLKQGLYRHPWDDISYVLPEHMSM
Experiment: Inhibitory activity against human recombinant ATP-Citrate Lyase (ACL) enzyme
attribute.measured: Ki (µM)

Study these solved cases before continuing.
[[record]]
compound = "O=C(O)[C@H](O)[C@@](O)(C[C@H](O)CCCCCCc1ccc(Cl)cc1Cl)C(=O)O"
numeric_readout = 0.55

[[record]]
compound = "Cc1cn(CCCCC[C@@H](O)C[C@](O)(CC(=O)O)C(=O)O)c2ccc(Cl)cc12"
numeric_readout = 9.5


P = COc1cc(Cl)ccc1CCCCCC[C@@H](O)C[C@](O)(CC(=O)O)C(=O)O
Q = O=C(O)C[C@@](O)(C[C@H](O)CCCCCCc1ccc(Cl)cc1Cl)C(=O)O (stereo in doubt; (+)-45)
IN: Which value of Ki is greater, the one for P or the one for Q ? Your answer should be the label attached to the chosen record.
OUT: P
(P: 19 µM, Q: 0.88 µM)
